- System: SK-MEL-2 melanoma
- assayDetails: NCI tumour cell line growth inhibition, 48 h
Where a SMILES comes first, the peptide text is derived from it. [ ]: non-standard residue; d: D form. NMeY = CN[C@@H](Cc1ccc(O)cc1)C(=O)O; dNMeF = CN[C@H](Cc1ccccc1)C(=O)O; Sar = CNCC(=O)O
metricName: log10(TGI) (log10 of the value in µM)

compound	testedTarget	measuredValue
C[C@]12CC[C@H](O)C=C1CC[C@@H]1[C@@H]2CC[C@]2(C)C(=N/O)/C(=C/c3ccncc3)C[C@@H]12	SK-MEL-2 melanoma	1.35
CCN(C(=O)CCl)C(C)(C)C(SSSC(c1ccc(Cl)cc1)C(C)(C)N(CC)C(=O)CCl)c1ccc(Cl)cc1 (centres undefined)	SK-MEL-2 melanoma	1.27
COc1cc(C)c2c(=O)c3c(oc2c1)C(=O)c1c(O)c(OC)cc(O)c1C3=O	SK-MEL-2 melanoma	0.27
CN1C(=O)c2c(c3c4ccccc4n(C4OC(CO)C(O)C(O)C4O)c3c3[nH]c4ccccc4c23)C1=O (centres undefined)	SK-MEL-2 melanoma	0.67
O=C(Nc1sccc1S(=O)(=O)c1ccc(Cl)cc1)C(F)(F)F	SK-MEL-2 melanoma	1.68
CC[C@H](C)[C@@H]1NC(=O)[C@H](Cc2ccc(O)cc2)N(C)C(=O)[C@H](Cc2ccccc2)NC(=O)CN(C)C(=O)[C@@H]2CCCN2C(=O)[C@@H](Cc2ccccc2)N(C)C(=O)[C@H](CC(C)C)NC1=O (cyclo(F[NMeY]IL[dNMeF]P[Sar]))	SK-MEL-2 melanoma	0.28
O=C(NCCNCCNCCNC(=O)c1cc(-c2ccccc2)nc2ccccc12)c1cc(-c2ccccc2)nc2ccccc12	SK-MEL-2 melanoma	0.49
CCOC(=O)Cn1c(C)c(/C=N/NC(=O)c2cc3c(ccc4ccccc43)o2)c2ccccc21	SK-MEL-2 melanoma	0.85
Nc1ncnc2c(C3OC(CO)C(O)C3O)scc12 (centres undefined)	SK-MEL-2 melanoma	0.33

###

- System: NCI/ADR-RES ovarian
- assayDetails: NCI tumour cell line growth inhibition, 48 h
metricName: TGI

molecule	measuredValue
Nc1c(C(=O)c2cccc(CCC3(O)CCCC3)c2)cnn1-c1ccc(F)cc1	> 25 µM
COc1ccc2c(c1)sc1nc(-c3ccccc3)c(-c3ccc(O)c(OC)c3)n12	> 100 µM
O=C1CSC(c2ccc(Cl)cc2)N1c1ccc(-c2ccc(-n3c(-c4ccccc4)nc4ccccc4c3=O)cc2)cc1 (stereo not drawn)	82.5 µM
CC[C@H](C)[C@H](NC(=O)Nc1ccccc1)C(=O)N(C)[C@H](C[C@@H](OC(C)=O)c1nc(C(=O)N[C@@H](Cc2ccccc2)C[C@H](C)C(=O)OC)cs1)C(C)C	> 100 µM
Cc1ccsc1C(=O)C(CC(=O)c1cccs1)c1ccsc1 (stereo not drawn)	> 100 µM
O=C(NCCNCCNCCNC(=O)c1cc(-c2ccccc2)nc2ccccc12)c1cc(-c2ccccc2)nc2ccccc12	29.3 µM
C[C@]12CC[C@H](O)C=C1CC[C@@H]1[C@@H]2CC[C@]2(C)C(=N/O)/C(=C/c3ccncc3)C[C@@H]12	96.8 µM
Nc1nc(Cl)cc(NCC2(CO)CCC(O)C2)n1 (stereo not drawn)	> 100 µM

###

Overview of recorded TGI for various compounds
- System: TK-10 renal
- assayDetails: NCI tumour cell line growth inhibition, 48 h
metricName: TGI

compound	measuredValue
COc1ccc(OC)c(C#Cc2ccc(OC)c(C(=O)NCCc3ccc(F)cc3)c2)c1	> 100 µM
CN(C)CCCNc1ccnc2cc([N+](=O)[O-])ccc12	65.4 µM
O=C1OC(C2=CC(=O)c3ccccc3C2=O)C(Cl)=C1Cl (configuration not stated)	> 100 µM
CCN(C(=O)CCl)C(C)(C)C(SSSC(c1ccc(Cl)cc1)C(C)(C)N(CC)C(=O)CCl)c1ccc(Cl)cc1 (configuration not stated)	7.92 µM
CCOC(=O)CCC(C(=O)OCC)n1nnc2ccc(Nc3c(C)[n+]([O-])c4cc(Cl)ccc4[n+]3[O-])cc21 (configuration not stated)	> 100 µM
COC(=O)c1c2c(c(-c3ccccc3)c3c1-c1nc(Cl)ccc1CC3)CCc1ccc(Cl)nc1-2	> 100 µM
CN1C(=O)c2c(c3c4ccccc4n(C4OC(CO)C(O)C(O)C4O)c3c3[nH]c4ccccc4c23)C1=O (configuration not stated)	13.7 µM
COc1cccc(-n2ncc3c(N/N=C/c4ccc(S(C)(=O)=O)cc4)ncnc32)c1	> 23.3 µM
Nc1ccc(Nc2c3ccccc3nc3ccccc23)cc1	> 10 µM
O=C(/C=C\c1ccccc1)Oc1ccc(/C=C2\CCCCC2=O)cc1	43.2 µM
ICCC(c1ccccc1)(c1ccccc1)c1ccccc1	30.7 µM
CCCc1c(C(=O)OCC)[nH]c(-c2ccc(-c3[nH]c(C(=O)OCC)c(CCC)c3C(=O)OCC)o2)c1C(=O)OCC	> 100 µM
Cc1cc(N(CCCCl)CCCCl)ccc1C=Nc1cccc(Cl)c1	27.5 µM
O=C(O)CCCSc1nc2ccccc2s1	> 100 µM
O=C(O)C1=NNC(C(=O)O)=NN1	> 100 µM
O=C(O)CCCCCO	> 100 µM
NC(=O)Nc1cc(O)ccc1N=Nc1ccc(S(=O)(=O)Nc2ccccn2)cc1	> 100 µM
Fc1ccc(-c2nnc3sc(COc4ccccc4Cl)nn23)cc1Cl	> 100 µM
C#C[C@@]1(O)[C@@H](CO)O[C@@H](n2ccc3c(N)ncnc32)[C@@H]1O	9.48 µM
CC1OC(OC2CCCc3c(O)c4c(c(O)c32)C(=O)c2ccccc2C4=O)CC(N)C1O (configuration not stated)	3.02 µM
CC1=CC2=C(C(N)=O)C(=O)OC2(C)C(c2ccccc2)C1 (configuration not stated)	> 100 µM
Cc1cccc(NC(=O)CCl)c1	> 10 µM

###

Reported TGI by item:
- Test system: SNB-75 CNS
- assayDetails: NCI tumour cell line growth inhibition, 48 h

compound	TGI
CC(C)=CCC[C@](C)(O[C@@H]1O[C@H](CO)[C@@H](O)[C@H](O)[C@H]1O)[C@H]1CC[C@]2(C)[C@@H]1[C@H](O)C[C@@H]1[C@@]3(C)CC[C@H](O)C(C)(C)[C@@H]3[C@@H](O[C@@H]3O[C@H](CO)[C@@H](O)[C@H](O)[C@H]3O)C[C@]12C	> 100 µM
COc1cc(S(=O)(=O)Nc2nc(-c3ccc(N)cc3)cs2)ccc1Cl	> 100 µM
Cc1ccc(C2(O)CC(c3ccc([N+](=O)[O-])o3)=NN2C(=O)COc2ccccc2Cl)cc1 (stereo not given)	> 75.4 µM
CCOC(CI)O[C@@H]1C=C[C@H](OC(C)=O)C1 (stereo not given in full)	> 100 µM
NCCCCN(CCCN)Cc1ccccc1	> 100 µM
COc1cc2nc(N3CCCC3)nc(Nc3ccccc3)c2cc1OC	2.7 µM
Nc1ccn(C2CC(O)C(CO)O2)c(=O)n1 (stereo not given)	> 5000 µM
CCC[CH2][Ge]([CH2]CCC)([CH2]CCC)[O]C(=O)C(OC)c1ccccc1 (stereo not given)	> 100 µM
CN(C)C(=O)c1cc2cnc(Nc3ccc(-c4csc5c(=O)cc(N6CCNCC6)oc45)cc3)nc2n1C1CCCC1	2.03 µM
CC1OC(OC2CCCc3c(O)c4c(c(O)c32)C(=O)c2ccccc2C4=O)CC(N)C1O (stereo not given)	2.66 µM

###

- Tested on: A498 renal
- assayDetails: NCI tumour cell line growth inhibition, 48 h

molecule	testedTarget	TGI
C/C1=C\C/C=C(\C)[C@H]2CC(CC/C(C)=C/CC1)[C@@](C)(CO)O2	A498 renal	> 100 µM
CC(C)(C)OC(=O)NC1CCC[C@H]1O (stereo partly drawn)	A498 renal	> 100 µM
Nc1ccn(C2CC(O)C(CO)O2)c(=O)n1 (stereo not drawn)	A498 renal	> 5000 µM

###

- Test system: RPMI-8226 leukemia
- assayDetails: NCI tumour cell line growth inhibition, 48 h
Property: TGI; scope: individual molecules

molecule	TGI, µM
Nc1ncnc2c(C3OC(CO)C(O)C3O)[nH]nc12 (stereo unspecified)	3.96
ClC1=NC(Cl)C(Cl)=N/C1=N\c1ncn[nH]1 (stereo unspecified)	4.43
CC1=C(C#N)C2C(=C(N)Oc3ccccc32)C(N)=N1 (stereo unspecified)	77.3
COc1cc2c(c(OC)c1OC)-c1ccc(SC)c(=O)cc1[C@@H](NCc1cccc(C#N)c1)CC2	40.7

###

- Test system: OVCAR-8 ovarian
- assayDetails: NCI tumour cell line growth inhibition, 48 h
Listing: TGI of selected molecules
metricName: TGI (µM)

1. CN1CCN(Cc2ccc(NC(=O)c3nc4ccc5[nH]ncc5c4c4c3CCC4)cc2C(F)(F)F)CC1 2.22
2. C=CC(=O)N1CCC([C@@H]2CCNc3c(C(N)=O)c(-c4ccc(Oc5ccccc5)cc4)nn32)CC1 74.2
